- assayedTarget: hCA XII (Homo sapiens)
- Construct: gene CA12; recombinant from E. coli; transmembrane isoform with extracellular catalytic domain
- Sequence (O43570 30-289 limits assumed): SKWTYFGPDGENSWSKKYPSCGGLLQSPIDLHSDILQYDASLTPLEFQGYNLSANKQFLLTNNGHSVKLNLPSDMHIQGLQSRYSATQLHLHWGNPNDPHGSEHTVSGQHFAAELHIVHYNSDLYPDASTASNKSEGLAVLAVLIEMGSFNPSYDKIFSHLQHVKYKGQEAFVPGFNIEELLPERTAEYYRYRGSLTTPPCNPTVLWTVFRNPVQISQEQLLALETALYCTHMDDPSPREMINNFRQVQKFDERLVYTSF
- testSummary: stopped-flow CO2 hydration assay
- Format: biochemical
metricName: Ki (nM)

>>> print(df.to_string())
                                   compound  quantityunit  readoutvalue
0  CC(C)=NNC(=O)c1[nH]c2ccc(S(N)(=O)=O)cc2c1-c1ccccc1 [compound 12]            nM          87.9

A = CC(C)(C)C1CCC(=NNC(=O)c2[nH]c3ccc(S(N)(=O)=O)cc3c2-c2ccccc2)CC1 (centres unmarked) [compound 22]
B = NS(=O)(=O)c1ccc2[nH]c(C(=O)NN=C3CCCC3)c(-c3ccccc3)c2c1 [compound 16]
Of A and B , which shows the smaller Ki value? Answer with the label corresponding to your selection. A

P = C=NNC(=O)c1[nH]c2ccc(S(N)(=O)=O)cc2c1-c1ccccc1 [compound 10]
Q = CCC(C)=NNC(=O)c1[nH]c2ccc(S(N)(=O)=O)cc2c1-c1ccccc1 [compound 13]
Of P and Q , which shows the smaller Ki value? Answer with the label corresponding to your selection. P
(P: 23.8 nM, Q: 92.4 nM)

====

- assayedTarget: hCA II (Homo sapiens, UniProt P00918)
- Construct: gene CA2; recombinant from E. coli; cytosolic isoform
- testSummary: stopped-flow CO2 hydration assay
- Format: biochemical
metricName: Ki

Example entries begin here.
>>> print(df.to_string())
                                   molecule  metricname  readoutvalue
0  NS(=O)(=O)c1ccc2[nH]c(C(=O)NN=Cc3cccs3)c(-c3ccccc3)c2c1 [compound 4]          Ki    > 10000 nM
1  NS(=O)(=O)c1ccc2[nH]c(C(=O)NN=Cc3ccc(Br)s3)c(-c3ccccc3)c2c1 [compound 5]          Ki    > 10000 nM

I'd like to know its Ki. The molecule in question is Cn1cccc1C=NNC(=O)c1[nH]c2ccc(S(N)(=O)=O)cc2c1-c1ccccc1 [compound 6] > 10000 nM
